All figures here come from patent US20150037348A1.

# assayed target: T1, human IL-12 (human, UniProt P29459 23-219; P29460 23-328)
# T1 construct: recombinant human IL-12 heterodimer (p35/p40, disulfide-linked); also called hIL-12; rhIL-12
# T1 sequence (looked up) 1: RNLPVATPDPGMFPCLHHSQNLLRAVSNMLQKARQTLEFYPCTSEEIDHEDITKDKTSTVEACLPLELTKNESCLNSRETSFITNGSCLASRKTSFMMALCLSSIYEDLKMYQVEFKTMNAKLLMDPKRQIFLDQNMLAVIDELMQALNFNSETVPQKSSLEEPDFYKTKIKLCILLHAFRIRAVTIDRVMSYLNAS
# T1 sequence (looked up) 2: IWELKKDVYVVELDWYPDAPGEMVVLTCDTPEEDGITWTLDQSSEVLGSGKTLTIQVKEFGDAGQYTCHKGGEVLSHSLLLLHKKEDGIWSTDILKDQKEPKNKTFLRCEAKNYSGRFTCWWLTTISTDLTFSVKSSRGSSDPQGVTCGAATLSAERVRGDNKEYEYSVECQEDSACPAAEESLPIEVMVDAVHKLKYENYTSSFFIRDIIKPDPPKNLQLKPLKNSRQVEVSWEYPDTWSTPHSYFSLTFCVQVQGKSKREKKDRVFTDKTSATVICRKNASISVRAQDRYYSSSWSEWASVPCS
# assay text: SPR (BIAcore), IL-12 chip
Documented koff across a set of binders
property measured: koff (s⁻¹)

>>> quantitative_readout("B5 (scFv, V domains shown, scFv) VH: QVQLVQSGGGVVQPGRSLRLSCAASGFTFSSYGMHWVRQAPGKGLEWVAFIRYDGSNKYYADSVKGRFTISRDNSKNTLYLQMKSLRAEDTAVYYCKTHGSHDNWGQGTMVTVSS VL: SYVLTQPPSVSGTPGQRVTISCSGGRSNIGSNTVKWYQQLPGTAPKLLIYGNDQRPSGVPDRFSGSKSGTSASLAITGVQAEDEADYYCQSYDRGQPHAVLFGTGTKVTVL")
0.00304
>>> quantitative_readout("156-1 (scFv, V domains shown, scFv) VH: QVQLVQSGGGVVQPGRSLRLSCAASGFTFSSYGMHWVRQAPGKGLEWVAFIRYDGSNKYYADSVKGRFTISRDNSKNTLYLQMKSLRAEDTAVYYCTTHGSHDTWGQGTMVTVSS VL: SYVLTQPPSVSGTPGQRVTISCSGGRSNIGSNTVKWYQQLPGTAPKLLIYGNDQRPSGVPDRFSGSKSGTSASLAITGVQAEDEADYYCQSYDRDFTGSRVFGTGTKVTVL")
0.005
